Starred links: 1 amine or outer side, 2 acyl side, 3 side chain; linkers in the order of their positions; H or OH if unused. Non-standard residues stand in square brackets, D forms with d. Residues, ends and D or L forms follow the SMILES beside them. *: point of attachment. LeuΨ(S-CHOHCH2)Ala = CC(C)C[C@H](N[*:1])[C@@H](O)C[C@@H](C)C(=O)[*:2]; X1 = O=C(O)CC[C@H](N*)C(=O)C[C@@H](Cc1ccccc1)C(=O)O
Recorded Ki values (Beta-secretase 1 (Homo sapiens)) are given below.
propertyLabel: Ki (µM)

A = CC(C)C[C@H](NCC(=O)[C@H](CC(N)=O)NC(=O)OC(C)(C)C)C(O)CC(C)C(=O)NC(C)C(=O)NCc1ccccc1 (some centres not stated)
B = CC(C)C[C@H](NC(=O)[C@@H](N)CCC(=O)O)C(=O)N[C@@H](CC(=O)O)C(=O)N[C@@H](CC(C)C)[C@@H](O)C[C@@H](C)C(=O)N[C@H](C(=O)N[C@@H](CCC(=O)O)C(=O)C[C@@H](Cc1ccccc1)C(=O)O)C(C)C (H-ELD[LeuΨ(S-CHOHCH2)Ala]V-X1)
When the recorded Ki values are compared, which is smaller: that of A or that of B ? Your choice should be expressed through its label. B
